Species on record: Rattus norvegicus
Experiment: Selectivity for rat muscarinic M1 receptor over rat muscarinic M5 receptor by calcium mobilization assay
Exercise: for every item that follows, state its recorded Ratio IC50.

substance.smiles: CCN1CCN(c2ccc(NC(=O)Cc3ccc(F)cc3)cc2Cl)CC1
Ratio IC50: > 26
//
substance.smiles: CCN1CCN(c2ccc(NC(=O)COc3ccccc3)cc2Cl)CC1
Ratio IC50: > 45

Now take the following molecule into account.
Prompt: I would be grateful if you could share the reported Ratio IC50 for "CCN1CCN(c2ccc(NC(=O)C3CCCCC3)cc2Cl)CC1" .
Completion: > 32

---

Biological target: Muscarinic acetylcholine receptor M3 (Rattus norvegicus, UniProt P08483)
Sequence (P08483 whole entry): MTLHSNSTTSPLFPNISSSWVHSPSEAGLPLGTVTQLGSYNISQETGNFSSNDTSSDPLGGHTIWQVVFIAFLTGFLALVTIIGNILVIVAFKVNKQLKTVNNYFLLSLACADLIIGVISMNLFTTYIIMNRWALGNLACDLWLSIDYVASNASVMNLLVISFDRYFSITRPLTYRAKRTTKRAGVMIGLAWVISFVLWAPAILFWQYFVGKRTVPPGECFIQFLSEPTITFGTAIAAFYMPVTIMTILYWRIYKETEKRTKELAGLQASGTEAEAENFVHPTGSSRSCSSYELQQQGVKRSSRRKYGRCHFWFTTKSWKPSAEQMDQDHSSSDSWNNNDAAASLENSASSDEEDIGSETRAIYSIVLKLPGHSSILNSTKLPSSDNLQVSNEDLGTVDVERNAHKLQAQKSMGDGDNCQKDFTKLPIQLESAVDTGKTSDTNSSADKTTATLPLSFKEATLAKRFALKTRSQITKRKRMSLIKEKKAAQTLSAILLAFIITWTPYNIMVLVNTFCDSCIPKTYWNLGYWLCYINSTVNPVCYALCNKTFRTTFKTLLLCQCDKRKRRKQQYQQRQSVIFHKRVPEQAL
Test: Antagonist activity at rat muscarinic M3 receptor expressed in CHO cells by calcium mobilization assay
measure.name: IC50

Reference set, count: 5
substance.smiles: CCN1CCN(c2ccc(NC(=O)CCC3CCCC3)cc2Cl)CC1
target.under.test: Muscarinic acetylcholine receptor M3 (Rattus norvegicus, UniProt P08483)
measure.name: IC50
result.value: 3.1 µM
//
substance.smiles: CCCC(=O)Nc1ccc(N2CCN(CC)CC2)c(Cl)c1
target.under.test: Muscarinic acetylcholine receptor M3 (Rattus norvegicus, UniProt P08483)
measure.name: IC50
result.value: > 150 µM
//
substance.smiles: CCN1CCN(c2ccc(NC(=O)[C@H]3C[C@@H]3c3ccccc3)cc2Cl)CC1
target.under.test: Muscarinic acetylcholine receptor M3 (Rattus norvegicus, UniProt P08483)
measure.name: IC50
result.value: 24 µM
//
substance.smiles: CCN1CCN(c2ccc(NC(=O)COCc3ccccc3)cc2Cl)CC1
target.under.test: Muscarinic acetylcholine receptor M3 (Rattus norvegicus, UniProt P08483)
measure.name: IC50
result.value: > 150 µM
//
substance.smiles: CCN1CCN(c2ccc(NC(=O)C3CCCCC3)cc2Cl)CC1
target.under.test: Muscarinic acetylcholine receptor M3 (Rattus norvegicus, UniProt P08483)
measure.name: IC50
result.value: > 150 µM

Dear reader, for each entry below, please note its IC50.
1. CCN1CCN(c2ccc(NC(=O)CCc3ccccc3)cc2Cl)CC1
2. CCN1CCN(c2ccc(NC(=O)Cc3ccc(F)cc3)cc2Cl)CC1
3. CCN1CCN(c2ccc(NC(=O)COc3ccccc3)cc2Cl)CC1

Completion:
70 µM
> 150 µM
> 150 µM

Prompt: Request body: readout IC50, system Muscarinic acetylcholine receptor M3 (Rattus norvegicus, UniProt P08483), query "CCCCCC(=O)Nc1ccc(N2CCN(CC)CC2)c(Cl)c1" . Return the value.
Completion: > 150 µM
